// data source = patent US3937830A

Experimental Details: Acute oral toxicity in mice
Set-up: species or system adult albino male mice (Charles River strain)
Measurement Parameters: mouse, in vivo, 95% limits in parentheses
Measured Attribute: LD50
Please give the number followed by its unit.

For record CC(c1ccccc1)C1(OC(=O)C(C)(C)C)C(=O)NC(=O)NC1=O (stereo not shown) the listed LD50 is 690 mg/kg

* * *

Experimental Details: Therapeutic index (LD50 divided by ED50)
Parameters: species or system adult albino male mice (Charles River strain)
Measurement Parameters: mouse, in vivo; oral LD50 / oral hot-plate ED50, mice
Measured Attribute: selectivity ratio

For record CC(c1ccccc1)C1(OC(=O)C(C)(C)C)C(=O)NC(=O)NC1=O (stereo not shown) the listed selectivity ratio is > 230
